Where do the numbers come from? From patent US20020127228A1.

Reported values of Decrease in blood pressure for individual entries
Test: Hypotensive effect in anesthetized normal rats, mean blood pressure
Type: in vivo, rat
Design: unit not given here
Settings: 100 μg/kg body weight into caudal artery, mean blood pressure before and after, n 3
Number only, please.

compound: CCCCC[C@H](O)/C=C/[C@H]1C(=O)CC(=O)[C@@H]1CCCCCCC(=O)O
Decrease in blood pressure: −5

Consider the compound CCCCC1C(=O)CC[C@H]2[C@@H]1CC(=O)[C@@H]2C/C=C\CCCC(=O)O (stereo partly shown) and give its measured Decrease in blood pressure.
0

Please answer likewise for CCCCC[C@H](O)/C=C/[C@H]1[C@H](O)CC(=O)[C@@H]1CCCCCCC(=O)O [PGE1, prostaglandin E1]
−55
